B1: TCAP (parent)
chain: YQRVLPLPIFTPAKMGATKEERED

variants of: B1; test: protein stability index of a GFP-peptide fusion (GPS, HEK-293T) (PSI 1-6); higher = more stable; settings: c terminus: a fixed tail appended;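 further: lentivirally expressed fusions sorted by FACS into six bins by GFP to DsRed ratio, PSI derived from sequencing read proportions per bin multiplied by bin number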
Measurement name: protein stability index

Seq text | protein stability index
YQSVLPLPIFTPAKMGATKEERED | 2.3
YQRVLPLPIFTPAKMGKTKEERED | 2.21

Give measured protein stability index for every item shown.
1. YQRVLPLPIFTPAKFGATKEERED
2. YQRVLPLPIFTPAKMGSTKEERED
3. YQRVLALPIFTPAKMGATKEERED
4. YQRVLPLPIFTPAKMGATKEEKED
5. YQRVLDLPIFTPAKMGATKEERED
6. YQRVLPLPIFTPAKMGATKEWRED
7. YQRVLPLIIFTPAKMGATKEERED

1. 2.14
2. 2.02
3. 2.09
4. 2.09
5. 2.62
6. 2.41
7. 2.15

Give measured protein stability index for every item shown.
1. YCRVLPLPIFTPAKMGATKEERED
2. YQRVLPLPIFTWAKMGATKEERED
3. YQRVLPLPIFTPAVMGATKEERED
4. YIRVLPLPIFTPAKMGATKEERED

1.99
1.94
2.78
2.08
